target: PD-1 (UniProt Q15116); assay: blocking ELISA, clone supernatant, competitor PD-L1.hFc detected with anti-human Fc HRP
Sequence (Q15116 25-170 limits assumed): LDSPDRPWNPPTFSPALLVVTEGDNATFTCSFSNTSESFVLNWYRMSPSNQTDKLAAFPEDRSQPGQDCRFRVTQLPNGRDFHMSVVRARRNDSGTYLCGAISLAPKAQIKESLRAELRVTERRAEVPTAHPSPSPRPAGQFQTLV
Metric: OD450, PD-L1 binding with PD-1
Give the number first and the unit second.

OD450, PD-L1 binding with PD-1 measured on NB211 (VHH) VHH: EVQVVETGGGLAQAGGSLRLSCAASGRTFSGYTVGWYRQSPGKEREFVAAISYSGGSTDYADSVKGRFTISRDNANNTVYLQMGSLKAEDTAVYYCNRVIRGTRDPSIYYVMDYWGKGTLVTVSS = 2.21 OD450

Query NB192 (VHH) VHH: EVQLVESGGGLVQAGGSLRLSCAASGRTFNGYGMGWFRQAPGKEREFVAAISWRDSSKYYADSVRDRFTASRDNAKNTVYLQMNSLKPEDTAVYYCRPYSDYVTYDPYDYDAWGQGTQVTVSS yields OD450, PD-L1 binding with PD-1 of 2.24 OD450

Record NB548 (VHH) VHH: QLQLVESGGGLVQPGGSLRLSCTANGFSVGDYSMSWHRQPPGKEREVVATTARDSGSTFYAASVKGRFTISRDNAKNTVYLQMNSLKPEDTGVYYCRVNSQDYWGQGTQVTVSS , field OD450, PD-L1 binding with PD-1: 2.43 OD450

Kindly note the recorded OD450, PD-L1 binding with PD-1 for NB159 (VHH) VHH: QVQLVESGGGSVQAGDSLRISCEASGRTFMRYSMGWFRQASGKEREFVAAISWGGSSTYYADSVKGRFIISRDNTKNTVFLQMNSLKPEDTAVYYCAADTNPSGSWDRPTNEAEYDYWGQGTQVTVSS , which is 2.1 OD450

# binder NB196 (VHH) VHH: QVQLVETGGGLVQAGGSLRLSCTASGDTNLFSAMGWHRQAPGKERELVAAITNSGMTYYADVVKGRFTLSRDNAKNTVYLQMNSLKPEDTAVYYCNAGAPPPGGFGYDESDYWGQGTQVTVSS ; its OD450, PD-L1 binding with PD-1 = 2.49 OD450

According to the records, this binder NB148 (VHH) VHH: QVQLVESGGGLVQAGGSLRLSCAASGGTFSGSELGWFRQAPGKEREFVAGISRNGGTTGYSDSVKDRFTIARDNAKNTVYLQMNSLKPEDTAVYYCAAGLRAYYGDSYVDTMTENYNYWGQGTQVTVSS displays OD450, PD-L1 binding with PD-1 of 2.56 OD450

Summary for this binder, NB147 (VHH) VHH: EVQVVESGGGVVQAGDSLRLSCVASGRTFSSVAMGWFRQAPGKEREFVAAISRSGGSAGYSDSVKDRSTISRDNAKNTVYLQMNSLKPEDTAVYFCAASELDFCSTLGCYDYWGQGIQVTFSS : OD450, PD-L1 binding with PD-1 is 0.994 OD450

// NB222 (VHH) VHH: QVQLVESGGGLVQAGGSLRLSCAASGGTFSNFNVGWFRQAPGKEREFVAASNWSAGTTHYSDSVKGRFTISRDNAANTAYLQMNSLRPDDTAVYYCNRVIRGTTYPDVYYGMDYWGKGTLVTVSS : OD450, PD-L1 binding with PD-1 value = 2.23 OD450
